# Test system: NCI-H358 (K-Ras G12C)
# TEST NAME: CellTiter-Glo cell viability assay, NCI-H358
# Type: cell-based, human
# COND: Homo sapiens, NCI-H358, 120 h, NCI-H358, 5-day treatment; class symbols; read-out: Additional H358 Cell Viability assay data (K-Ras G12C, IC50)
# IC50 values compiled below

COMPOUND	IC50
C=CC(=O)N1CC[C@H](C(=O)N(C)[C@H](C(=O)N[C@H]2CC3=NN=C(O3)c3ccc4c(c3)c(c(-c3cccnc3[C@H](C)OC)n4CC)CC(C)(C)COC(=O)[C@@H]3CCCN(N3)C2=O)C(C)C)C1 (atropisomer, axis not shown)	100 to 1000 nM
C=CC(=O)N(C)CCN1CCN(C(=O)N(C)[C@H](C(=O)N[C@H]2Cc3cccc(c3)-c3ccc4c(c3)c(c(-c3cccnc3[C@H](C)OC)n4CC)CC(C)(C)COC(=O)[C@@H]3CCCN(N3)C2=O)C(C)C)C[C@H]1C (atropisomer, axis not shown)	100 to 1000 nM
C=CC(=O)N1CC[C@H](C(=O)N(C)[C@H](C(=O)N[C@H]2Cc3cc(cc(C(F)F)c3)-c3ccc4c(c3)c(c(-c3cc(N5CCN(C)CC5)cnc3[C@H](C)OC)n4CC(F)(F)F)CC(C)(C)COC(=O)[C@@H]3CCCN(N3)C2=O)C(C)C)C1 (atropisomer, axis not shown)	< 10 nM
C=CC(=O)N1CC[C@H](C(=O)N(CC)[C@H](C(=O)N[C@H]2Cc3cccc(c3)-c3ccc4c(c3)c(c(-c3cccnc3[C@H](C)OC)n4CC)CC(C)(C)COC(=O)[C@@H]3CCCN(N3)C2=O)C(C)C)C1 (atropisomer, axis not shown)	10 to 100 nM
C=CC(=O)N1CC[C@H](C(=O)N(C)[C@H](C(=O)N[C@H]2Cc3cc(OC4O[C@H](CO)[C@@H](O)[C@H](O)[C@H]4O)cc(c3)-c3ccc4c(c3)c(c(-c3cccnc3COC)n4CC)CC(C)(C)COC(=O)[C@@H]3CCCN(N3)C2=O)C(C)C)C1 (stereo partly drawn)	> 1000 nM
CCn1c(-c2cccnc2[C@H](C)OC)c2c3cc(ccc31)-c1cccc(c1)C[C@H](NC(=O)[C@H](C(C)C)N1CC[C@]3(CCN(C(=O)C#C[C@H]4COCCN4C4COC4)C3)C1=O)C(=O)N1CCC[C@H](N1)C(=O)OCC(C)(C)C2 (atropisomer, axis not shown)	10 to 100 nM
C=CC(=O)N1CCO[C@H]2CN(C(=O)N(C)[C@H](C(=O)N[C@H]3Cc4coc(n4)-c4ccc5c(c4)c(c(-c4cccnc4[C@H](C)OC)n5CC(F)(F)F)CC(C)(C)COC(=O)[C@@H]4CCCN(N4)C3=O)C(C)C)C[C@H]21 (atropisomer, axis not shown)	10 to 100 nM
C=CC(=O)N1CC[C@]2(C1)OCN([C@H](C(=O)N[C@H]1Cc3cccc(n3)-c3ccc4c(c3)c(c(-c3cccnc3[C@H](C)OC)n4CC)CC(C)(C)COC(=O)[C@@H]3CCCN(N3)C1=O)C(C)C)C2=O (atropisomer, axis not shown)	100 to 1000 nM
C=CC(=O)N1CC[C@H](C(=O)N(C)[C@H](C(=O)N[C@H]2Cc3csc(n3)-c3ccc4c(c3)c(c(-c3cccnc3[C@H](C)OC)n4CC(F)(F)F)CC(C)(C)COC(=O)[C@@H]3CCCN(N3)C2=O)C(C)C)C1 (atropisomer, axis not shown)	10 to 100 nM
C=CC(=O)N1CCN(C(=O)N(C)[C@H](C(=O)N[C@H]2Cc3nc(cs3)-c3ccc4c(c3)c(c(-c3cccnc3[C@H](C)OC)n4CC)CC(C)(C)COC(=O)[C@@H]3CCCN(N3)C2=O)C(C)C)[C@H]2C[C@H]21 (atropisomer, axis not shown)	10 to 100 nM
CCn1c(-c2cccnc2[C@H](C)OC)c2c3cc(ccc31)-c1csc(n1)C[C@H](NC(=O)[C@@H](COC1CN(C(=O)C#CC(C)(C)N(C)C)C1)OC)C(=O)N1CCC[C@H](N1)C(=O)OCC(C)(C)C2 (atropisomer, axis not shown)	< 10 nM
C=CC(=O)N1CC[C@H](C(=O)N(C)[C@H](C(=O)N[C@H]2Cc3cccc(c3)-c3ccc4c(c3)c(c(-c3cccnc3[C@H](C)OC)n4CC(F)(F)F)CC(C)(C)COC(=O)[C@@H]3CCCN(N3)C2=O)C(C)C)C1 (atropisomer, axis not shown)	< 10 nM
C=CC(=O)N1CCC2(C1)OCN([C@H](C(=O)N[C@H]1Cc3cccc(c3)-c3ccc4c(c3)c(c(-c3cccnc3[C@H](C)OC)n4CC)CC(C)(C)COC(=O)[C@@H]3CCCN(N3)C1=O)C(C)C)C2=O (stereo partly drawn)	10 to 100 nM
C=CC(=O)N1CC[C@H](C(=O)N(C)[C@H](C(=O)N[C@H]2Cc3cc(O)cc(c3)-c3ccc4c(c3)c(c(-c3cn(C)cn3)n4CC)CC(C)(C)COC(=O)[C@@H]3CCCN(N3)C2=O)C(C)C)C1	100 to 1000 nM
CCn1c(-c2cccnc2[C@H](C)OC)c2c3cc(ccc31)-c1cccc(c1)C[C@H](NC(=O)[C@@H](COC1CN(C(=O)C#CC(C)(C)N(C)CCO)C1)C(C)C)C(=O)N1CCC[C@H](N1)C(=O)OCC(C)(C)C2 (atropisomer, axis not shown)	< 10 nM

src = patent US11566007B2
